# credit: patent US6653529B2

Collected Total No. of kernels/3 panicles values appear next to each entry.
tested on: untransformed Nt rice plants; assay: Response of rice plants to various herbicides, seed set in greenhouse; format: in vivo; details: post-emergence, 4× rate, 1× g ai/ha: PURSUIT 62.5, CADRE 32, ARSENAL 24, RAPTOR 32, SCEPTER 125, ACCENT 35, CLASSIC 5, AC322,140 20, LONDAX 68

CCOC(=O)c1ccccc1S(=O)(=O)NC(=O)Nc1nc(Cl)cc(OC)n1 : 0

Sure, the documented Total No. of kernels/3 panicles for CC(C)C1(C)N=C(c2ncccc2C(=O)O)NC1=O (stereo not drawn) is 0

Sure, the documented Total No. of kernels/3 panicles for COc1cc(OC)nc(NC(=O)NS(=O)(=O)c2ncccc2C(=O)N(C)C)n1 is 0

Sure, the documented Total No. of kernels/3 panicles for CC(C)C1(C)N=C(c2nc3ccccc3cc2C(=O)O)NC1=O (stereo not drawn) is 0
